Tested on: human ABCB11 mRNA
ASSAY_NOTES: ASO treatment of primary human hepatocytes (PHH), ABCB11 mRNA by RT-qPCR normalized to B2M
Format: cell-based
CONDITION_INFO: primary human hepatocytes, 5 μM ASO with PO-modifications, normalized to untreated hepatocytes
Strand notation (5' to 3'): a small letter for the sugar, then the base; units joined by * are phosphorothioate-linked, units joined directly phosphodiester-linked; [ ] holds rarer units or linkages, { } end groups; capitals alone tell only the bases. e = 2'-O-(2-methoxyethyl) (MOE); l = locked nucleic acid (LNA); [5mC] = 5-methylcytosine
Use 1 when the recorded ABCB11 FC mRNA (5 μM ASO vs. untreated) is no lower than 1 fold change; use 0 when it is lower.

# count of solved cases: 3
{"SUBSTANCE": "CO-12746 (antisense eG*eT*eG*eAeGeGe[5mC]*eA*eT*e[5mC]*eA*eG*eG*eTeAeAeG*eT*eT*e[5mC])", "MEASURED_ON": "human ABCB11 mRNA", "CLASS_ASSIGNMENT": 1}
{"SUBSTANCE": "CO-11202: ASO containing PO-modifications identified in the Table 13 screen in PHHs (antisense eT*eG*eTeT*eT*eT*eG*e[5mC]eT*eT*eG*eG*eTe[5mC]*eA*eA*eG*eAeG*eG)", "MEASURED_ON": "human ABCB11 mRNA", "CLASS_ASSIGNMENT": 1}
{"SUBSTANCE": "CO-11244 (antisense eG*eT*eGeG*lAeG*e[5mC]eA*eAlA*e[5mC]eT*eAeG*lGe[5mC]*eAe[5mC]*eT*eG)", "MEASURED_ON": "human ABCB11 mRNA", "CLASS_ASSIGNMENT": 1}

Query: Please tell me: is the substance CO-11220 (antisense eG*eT*lGeG*lAeG*l[5mC]eA*lAeA*l[5mC]eT*lAeG*lGe[5mC]*lAe[5mC]*eT*eG) at or over 1 fold change in terms of ABCB11 FC mRNA (5 μM ASO vs. untreated)?
Reply: 1

Query: Please tell me: is the substance CO-11240 (antisense eG*eT*eG*eG*lAeG*e[5mC]*eA*eAlA*e[5mC]*eT*eAeG*lG*e[5mC]*eAe[5mC]*eT*eG) at or over 1 fold change in terms of ABCB11 FC mRNA (5 μM ASO vs. untreated)?
Reply: 1

Query: Please tell me: is the substance CO-11205 (antisense eT*eGeT*eT*eT*eTeG*e[5mC]*eT*eTeG*eG*eT*e[5mC]eA*eA*eG*eAeG*eG) at or over 1 fold change in terms of ABCB11 FC mRNA (5 μM ASO vs. untreated)?
Reply: 1

Query: Please tell me: is the substance CO-11218 (antisense eG*eTlG*eG*lAeG*l[5mC]*eAlA*eA*l[5mC]eT*lA*eGlG*e[5mC]*lAe[5mC]*eT*eG) at or over 1 fold change in terms of ABCB11 FC mRNA (5 μM ASO vs. untreated)?
Reply: 1

Query: Please tell me: is the substance CO-12745 (antisense eG*eT*eG*eA*eGeGe[5mC]*eA*eT*e[5mC]*eA*eG*eG*eTeAeA*eG*eT*eT*e[5mC]) at or over 1 fold change in terms of ABCB11 FC mRNA (5 μM ASO vs. untreated)?
Reply: 0

Query: Please tell me: is the substance CO-11227 (antisense eG*eT*lG*eGeA*lG*e[5mC]*eAlA*eA*e[5mC]*lTeA*eG*lG*e[5mC]eA*l[5mC]*eT*eG) at or over 1 fold change in terms of ABCB11 FC mRNA (5 μM ASO vs. untreated)?
Reply: 1

Query: Please tell me: is the substance CO-11216 (antisense eG*eT*lG*eG*lAeG*l[5mC]*eA*lAeA*l[5mC]*eT*lAeG*lG*e[5mC]*lAe[5mC]*eT*eG) at or over 1 fold change in terms of ABCB11 FC mRNA (5 μM ASO vs. untreated)?
Reply: 1

Query: Please tell me: is the substance CO-11199 (antisense eT*eG*eT*eTeTeTeG*e[5mC]*eT*eT*eG*eG*eT*e[5mC]eAeAeG*eA*eG*eG) at or over 1 fold change in terms of ABCB11 FC mRNA (5 μM ASO vs. untreated)?
Reply: 0

The reported measurements were obtained from patent US20250320496A1.
